target: furin, P09958;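 also: purified furin at 1:10 enzyme:substrate in 50 mM HEPES pH 7.5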
Sequence (P09958 whole entry): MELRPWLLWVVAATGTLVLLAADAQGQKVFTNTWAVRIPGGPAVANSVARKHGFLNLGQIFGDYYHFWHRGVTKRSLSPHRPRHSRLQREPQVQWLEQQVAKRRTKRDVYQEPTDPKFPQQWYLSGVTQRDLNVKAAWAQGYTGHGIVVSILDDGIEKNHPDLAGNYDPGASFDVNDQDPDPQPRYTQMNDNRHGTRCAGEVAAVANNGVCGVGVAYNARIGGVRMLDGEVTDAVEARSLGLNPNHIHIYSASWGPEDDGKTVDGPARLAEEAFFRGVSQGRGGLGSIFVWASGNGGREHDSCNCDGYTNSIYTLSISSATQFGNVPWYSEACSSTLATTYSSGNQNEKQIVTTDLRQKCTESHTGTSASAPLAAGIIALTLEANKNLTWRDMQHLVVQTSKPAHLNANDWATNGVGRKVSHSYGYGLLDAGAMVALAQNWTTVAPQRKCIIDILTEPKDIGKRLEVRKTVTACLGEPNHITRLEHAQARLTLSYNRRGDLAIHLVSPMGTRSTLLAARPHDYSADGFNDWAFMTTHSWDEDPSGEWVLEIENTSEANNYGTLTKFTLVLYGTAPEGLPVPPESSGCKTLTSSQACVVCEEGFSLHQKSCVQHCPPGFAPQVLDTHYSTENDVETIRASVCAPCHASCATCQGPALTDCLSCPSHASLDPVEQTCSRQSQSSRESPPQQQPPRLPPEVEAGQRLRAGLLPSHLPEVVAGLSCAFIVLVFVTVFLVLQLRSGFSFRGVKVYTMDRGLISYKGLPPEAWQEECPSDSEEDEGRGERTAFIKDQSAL
experimental protocol: furin cleavage Z-score vs untreated control; higher = more cleavage, active = 3.5 or more, inactive = 1 or less, 8 variable residues between constant flanks
run parameters: 30 min
Some of the results follow. The true hit rate is not given.
Kindly note that classification relies on furin cleavage Z-score with these boundaries: lower = under -0.5, middle = from -0.5 up to 0.8, upper = 0.8 and over

Study these solved cases before continuing.
CASTLPGNPAAGNASASA [HC1050]: lower
CARIPQAILDAGNASASA [HC330]: middle
CALQERVPRDAGNASASA [FS-1366]: upper
CARPRRYLYQAGNASASA [FS-2285]: upper
CAREMRALACAGNASASA [FS-2917]: middle
CALSQTKQSGAGNASASA [HC947]: middle

Pending sequence:
Query :: Band of CARNRRSLSGAGNASASA [FS-2577] ?
Result :: upper
